measurement_protocol: qHTS assay to identify small molecule antagonists of the vitamin D receptor (VDR) signaling pathway - cell viability counter screen (AID 743225); further: nearly all actives have a fitted effect of over 50% in size
cond: VDR-bla HEK293T viability, CellTiter-Glo luminescence, 16 h; series mostly up to 61 µM
Records with an inconclusive call do not appear. The source made the active and inactive calls. The call rests on the fitted dose curve; in most records, active means well fitted cell-killing curve with a large enough effect in the repeat runs; inconclusive means weak or mixed curves, or effect the other way; inactive means no such curve, though single readings can be large or run the other way.
The reply should be one of these categories: true (1) for active, false (0) for inactive

{"compound": "CCCCCCCCCI", "category": "false (0)"}
{"compound": "Cc1cscn1", "category": "false (0)"}
{"compound": "C=CC(C)(CCC=C(C)C)OC(=O)CC(C)C (stereo not drawn)", "category": "false (0)"}
{"compound": "C[C@@H](CN(C)C)CN1c2ccccc2Sc2ccccc21", "category": "false (0)"}
{"compound": "C[C@@H]1CN(CCCn2c3ccccc3c3ccccc32)C[C@H](C)N1", "category": "true (1)"}
{"compound": "CCCCC(CC)COP(=O)(O)O (stereo not drawn)", "category": "false (0)"}
{"compound": "C[C@]1(Cn2ccnn2)[C@H](C(=O)O)N2C(=O)C[C@H]2S1(=O)=O", "category": "false (0)"}
{"compound": "CCOC(=O)c1ccc(O)c(O)c1", "category": "false (0)"}
{"compound": "CC[N+](CC)(CCNC(=O)C(=O)NCC[N+](CC)(CC)Cc1ccccc1Cl)Cc1ccccc1Cl", "category": "false (0)"}
{"compound": "O=C1c2ccccc2C(=O)N1CCc1noc(-c2ccc(CN3CCCCCC3)s2)n1", "category": "false (0)"}

Name the outcome recorded for `C/C=C(/C(=C/C)c1ccc(O)cc1)c1ccc(O)cc1` in the assay.
false (0)

Name the outcome recorded for `O=C(CCc1ccc(O)cc1)c1c(O)cc(O)cc1O` in the assay.
false (0)

Name the outcome recorded for CC(O)c1ccccc1 (stereo not drawn) in the assay.
false (0)

---

measurement_protocol: qHTS assay to identify small molecule agonists of the estrogen receptor beta (ER-beta) signaling pathway - cell viability counter screen (AID 1259380); further: nearly all actives have a fitted effect of over 30% in size
cond: ER-beta-bla HEK293T viability, CellTiter-Glo luminescence, 16 h; series mostly up to 92.4 µM
Records with an inconclusive call do not appear. The source made the active and inactive calls. Calls follow the shape of the dose curve; as a rule, active = well fitted cell-killing curve with a large enough effect in the repeat runs; inconclusive = weak or mixed curves, or effect the other way; inactive = flat fitted curve, though single readings scatter.
The reply should be one of these categories: active, inactive

Name the outcome recorded for O=C1C(=O)c2ccccc2C(O)=C1C1CCC(c2ccc(Cl)cc2)CC1 (stereo not drawn) in the assay.
active

Name the outcome recorded for CCC(OCCCOC)OC(C)=O (stereo not drawn) in the assay.
inactive

---

measurement_protocol: qHTS assay to identify small molecule agonists of the estrogen receptor beta (ER-beta) signaling pathway - cell viability counter screen (AID 1259380); further: nearly all actives have a fitted effect of over 30% in size
cond: ER-beta-bla HEK293T viability, CellTiter-Glo luminescence, 16 h; series mostly up to 92.4 µM
Results filed as inconclusive are left out. Activity calls are given as the source filed them. The call rests on the fitted dose curve; in most records, active means well fitted cell-killing curve with a large enough effect in the repeat runs; inconclusive means weak or mixed curves, or effect the other way; inactive means flat fitted curve, though single readings scatter.
The reply should be one of these categories: 1.0 = active, 0.0 = inactive

{"compound": "C[C@H]1c2cccc(O)c2C(O)=C2C(=O)[C@]3(O)C(O)=C(C(N)=O)C(=O)[C@@H](N(C)C)[C@@H]3[C@@H](O)[C@@H]21", "category": 0.0}

Name the outcome recorded for `C(=C\c1ccccc1)/c1ccccc1` in the assay.
0.0

Name the outcome recorded for COc1cc(N)c(Cl)cc1C(=O)NC1CCN(CCCOc2ccc(F)cc2)CC1OC (stereo not given) in the assay.
1.0
